The measurements presented in this section are drawn from the supplement of paper PMC8007513.

Test system: Trichoderma virens ATCC 9645
Procedure Summary: growth yield (OD600) relative to untreated control; higher = less growth inhibition
Conditions Used: compound concentration: 100 uM; 40 h
Where a name gives a salt, the structure may show the parent alone. The whole screen tested about 1,300 compounds, of which about 75 (6%) showed an effect of 50% or more. What follows is part of a selection rich in strong results, with near analogues and random picks from the rest.
Measurement Type: growth yield (%)

{"columns": ["Molecule", "Assay Value"],
 "data": [
  ["Clc1ccccc1C(c1ccccc1)(c1ccccc1)n1ccnc1", 2.38],
  ["CC[C@H](C)C(=O)O[C@H]1CCC=C2C=C[C@H](C)[C@H](CC[C@@H]3C[C@@H](O)CC(=O)O3)[C@H]21", 103],
  ["O=C(NCCN1CCOCC1)c1ccc(Cl)cc1 [Moclobemide]", 102],
  ["C[C@]1(Cn2ccnn2)[C@H](C(=O)O)N2C(=O)C[C@H]2S1(=O)=O", 99],
  ["OCC(O)CN1CCN(c2ccccc2)CC1 (racemic) [Dropropizine (R,S)]", 101],
  ["CCCOc1ccccc1-c1nc2[nH]nnc2c(=O)[nH]1", 99.1],
  ["Cc1cccc(C)c1NC(=O)CN1CCN(CCCC(c2ccc(F)cc2)c2ccc(F)cc2)CC1", 95.6],
  ["COc1ccc(C(=O)NCc2ccc(OCCN(C)C)cc2)cc1OC [Itopride]", 105],
  ["O=C(CCCN1CCC(O)(c2ccc(Br)cc2)CC1)c1ccc(F)cc1", 104],
  ["Nc1nc2c(ncn2COCCO)c(=O)[nH]1", 104],
  ["CN[C@@H]1[C@H](O[C@H]2[C@H](O[C@H]3[C@H](O)[C@@H](O)[C@H](NC(=N)N)[C@@H](O)[C@@H]3NC(=N)N)O[C@@H](C)[C@]2(O)CO)O[C@@H](CO)[C@H](O)[C@H]1O [Dihydrostreptomycin sulfate]", 96.9],
  ["Nc1nc2n[nH]nc2c(=O)[nH]1", 3.49],
  ["CO[C@@]1(NC(=O)C(C(=O)O)c2ccc(O)cc2)C(=O)N2C(C(=O)O)=C(CSc3nnnn3C)CO[C@@H]21 (some centres not stated) [Moxalactam disodium salt]", 96.1],
  ["Cc1c(NC(C)C)c(=O)n(-c2ccccc2)n1C [Isopyrin hydrochloride]", 101],
  ["CCOc1ccccc1OCC1CNCCO1 (configuration not stated) [Viloxazine hydrochloride]", 99.6],
  ["NS(=O)(=O)c1cc2c(cc1C(F)(F)F)NCNS2(=O)=O [Hydroflumethiazide]", 102],
  ["CCOC(=O)/C=C(C)/C=C/C=C(C)/C=C/c1c(C)cc(OC)c(C)c1C [Etretinate]", 110]
]}
